Values compiled from patent US9932309B2.

- measured-target: hTGR5 (Homo sapiens, UniProt Q8TDU6)
- Construct: expressed in transfected cells; host or cells: HEK293 cells, transiently co-transfected with the pCRE TA-Luciferase reporter
- Sequence (Q8TDU6 whole entry): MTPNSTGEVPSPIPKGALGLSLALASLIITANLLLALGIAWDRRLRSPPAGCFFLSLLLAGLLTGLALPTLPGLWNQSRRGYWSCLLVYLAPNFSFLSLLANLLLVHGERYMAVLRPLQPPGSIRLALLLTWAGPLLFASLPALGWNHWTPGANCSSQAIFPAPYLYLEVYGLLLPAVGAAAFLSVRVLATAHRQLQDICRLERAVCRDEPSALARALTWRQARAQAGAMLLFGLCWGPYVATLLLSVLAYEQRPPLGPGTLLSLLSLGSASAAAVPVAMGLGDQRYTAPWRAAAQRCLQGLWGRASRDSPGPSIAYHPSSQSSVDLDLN
- measurement-description: TGR5/CRE Luciferase Assay (hTGR5)
- Format: cell-based
- run-conditions: percentage of the 10 μM LCA value; HEK 293 cells transfected with hTGR5
property-measured: hTGR5 % trans (%)

molecule="CCCCN1C(=O)CC(c2ccc(Cl)cc2)C(C(=O)OCc2ccccc2)=C1C (centres unmarked)" value=54
molecule="COCCN1C(=O)CC(c2ccc(Cl)cc2)C(C(=O)OCc2ccc(Cl)cc2)=C1C (centres unmarked)" value=65
molecule="COCCN1C(=O)CC(c2ccc(Cl)cc2)C(C(=O)OCC2CCCCC2)=C1C (centres unmarked)" value=57
molecule="COCCN1C(=O)CC(c2ccc(Cl)cc2)C(C(=O)OCc2ccc(C)cc2)=C1C (centres unmarked)" value=72
molecule="CC1=C(C(=O)OCc2ccccc2)C(c2ccc(Cl)cc2)CC(=O)N1CCN1CCCC1 (centres unmarked)" value=47
molecule="CC1=C(C(=O)OCc2ccccc2)C(c2ccc(C(F)(F)F)cc2)CC(=O)N1 (centres unmarked)" value=48
molecule="COCCN1C(=O)CC(c2ccc(Cl)cc2)C(C(=O)OCc2ccc(OCCCN(C)C)cc2)=C1C (centres unmarked)" value=76
molecule="CC1=C(C(=O)OCc2ccc(OCCS(=O)(=O)O)cc2)[C@@H](c2ccc(Cl)nc2)CC(=O)N1C[C@@H]1CCCO1.N (racemic)" value=101
molecule="COCCOc1ccc(COC(=O)C2=C(C)N(C[C@H]3CCCO3)C(=O)C[C@H]2c2ccc(Cl)cc2)cc1 (racemic)" value=93
molecule="COc1ccccc1COC(=O)C1=C(C)N(CC2OCCO2)C(=O)CC1c1ccc(Cl)cc1 (centres unmarked)" value=99
molecule="O=C(OCc1ccccc1)C1=CN(CC2CC2)C(=O)CC1c1ccc(Cl)cc1 (centres unmarked)" value=59
molecule="CC1=C(C(=O)OCc2ccccc2)C(c2ccc(Cl)cc2)CC(=O)N1CCN (centres unmarked)" value=16
molecule="C#CCN1C(=O)CC(c2ccc(Cl)cc2)C(C(=O)OCc2ccccc2)=C1C (centres unmarked)" value=81
molecule="CC1=C(C(=O)OCc2ccccc2)C(c2ccc(F)cc2)CC(=O)N1 (centres unmarked)" value=40
molecule="COCCN1C(=O)CC(c2ccc(Cl)cc2)C(C(=O)OCCc2ccccc2)=C1C (centres unmarked)" value=50
molecule="COc1ccccc1COC(=O)C1=C(C)N(C[C@H]2CCCO2)C(=O)C[C@H]1c1ccc(C(F)(F)F)nc1 (racemic)" value=110
molecule="COc1ccccc1COC(=O)C1=C(C)N(C[C@@H]2CCCO2)C(=O)C[C@H]1c1ccc(Cl)nc1 (racemic) [Example 159]" value=107
molecule="CC1=C(C(=O)OCc2ccccc2)C(c2ccc(C)cc2)CC(=O)N1 (centres unmarked)" value=65
molecule="O=C1CC(c2ccc(Cl)cc2)C(C(=O)NCc2ccccc2)=CN1 (centres unmarked)" value=43
molecule="COCCC1=C(C(=O)OCc2ccccc2)C(c2ccc(Cl)cc2)CC(=O)N1 (centres unmarked)" value=36
molecule="COCCN1C(=O)CC(c2ccc(Cl)c(Cl)c2)C(C(=O)OCc2ccccc2OC)=C1C (centres unmarked)" value=89
molecule="CCC1=C(C(=O)OCc2ccccc2)C(c2ccc(Cl)cc2)CC(=O)N1C (centres unmarked)" value=34
molecule=COc1ccccc1COC(=O)C1=C(C)N(C[C@@H]2CCCO2)C(=O)C[C@@H]1c1ccc(Cl)nc1 value=92
molecule="COc1ccccc1COC(=O)C1=C(C)N(CC2CC2)C(=O)CC1c1ccc(Cl)cc1 (centres unmarked)" value=65
molecule="COc1ccccc1C1CC(=O)NC(C)=C1C(=O)OCc1ccccc1 (centres unmarked)" value=17
molecule="COCCN1C(=O)CC(c2ccc(Cl)cc2)C(C(=O)OCc2ccc(OC)cc2)=C1C (centres unmarked)" value=71
molecule="COCCN1C(=O)CC(c2ccc(Cl)cc2)C(C(=O)OCc2ccccc2C(F)(F)F)=C1C (centres unmarked)" value=57
molecule="CC1=C(C(=O)OCc2ccccc2)C(c2ccc(Cl)cc2)CC(=O)N1CC1CN(C)C1 (centres unmarked)" value=22
molecule="CC1=C(C(=O)OCc2ccccc2OCCS(=O)(=O)O)[C@@H](c2ccc(Cl)nc2)CC(=O)N1C[C@@H]1CCCO1.N (racemic)" value=74
molecule=COc1ccccc1[C@H](C)OC(=O)C1=C(C)N(C[C@H]2CCCO2)C(=O)C[C@H]1c1ccc(Cl)cc1 value=70
molecule="CC1=C(C(=O)OCc2ccccc2)C(c2ccc(Cl)cc2)CC(=O)N1Cc1ccccc1 (centres unmarked)" value=55
molecule="COCCN1C(=O)CC(c2ccc(Cl)cc2)C(C(=O)OCc2cccc(Cl)c2)=C1C (centres unmarked)" value=75

###

- measured-target: hTGR5 (Homo sapiens)
- measurement-description: TGR5/CRE Luciferase Assay (hTGR5)
- run-conditions: HEK 293 cells co-transfected with pCMV tag4b-TGR5h and pCRE TA-Luciferase; overnight incubation
property-measured: log10 EC50 (log10 of the value in nM)

molecule="CC1=C(C(=O)OCc2ccccc2)C(c2ccc(Cl)cc2)CC(=O)N1CCNC(=O)OC(C)(C)C (centres unmarked) [Compound 52]" property_measured="log10 EC50" value=3.40
molecule="CCOC(=O)CN1C(=O)CC(c2ccc(Cl)cc2)C(C(=O)OCc2ccccc2OC)=C1C (centres unmarked) [Compound 69]" property_measured="log10 EC50" value=2.48
molecule="CC1=C(C(=O)OCc2ccc(F)cc2Cl)C(c2ccc(Cl)cc2)CC(=O)N1C (centres unmarked) [Example 81]" property_measured="log10 EC50" value=2.70
molecule="COc1ccccc1COC(=O)C1=C(C)N(C[C@@H]2CCCO2)C(=O)C[C@H]1c1ccc(Cl)nc1 [Example 163]" property_measured="log10 EC50" value=1.23
molecule="CC1=C(C(=O)OC2CCc3ccccc32)[C@H](c2ccc(Cl)cc2)CC(=O)N1C[C@H]1CCCO1 (mixture of isomers) [Example 137]" property_measured="log10 EC50" value=2.58
molecule="COc1ccccc1COC(=O)C1=C(C)N(CC2CC2)C(=O)CC1c1ccc(Cl)cc1 (centres unmarked) [Compound 70]" property_measured="log10 EC50" value=1.85
molecule="COCCOc1ccc(COC(=O)C2=C(C)N(CCOC)C(=O)CC2c2ccc(Cl)cc2)cc1 (centres unmarked) [Example 119]" property_measured="log10 EC50" value=2.00
molecule="COCCN1C(=O)CC(c2ccc(Cl)cc2)C(C(=O)OCc2ccccc2OC)=C1C (centres unmarked) [Compound 64]" property_measured="log10 EC50" value=2.00

###

- measured-target: hTGR5 (Homo sapiens, UniProt Q8TDU6)
- measurement-description: TGR5/CRE Luciferase Assay (hTGR5)
- run-conditions: HEK 293 cells co-transfected with pCMV tag4b-TGR5h and pCRE TA-Luciferase; overnight incubation
Note to self: EC50 under 0.6 µM means met, ties and anything higher get not met.

compound="COc1ccccc1COC(=O)C1=C(C)N(Cc2ccco2)C(=O)CC1c1ccc(Cl)cc1 (stereo not drawn)" group=met
compound="COCCN1C(=O)CC(c2ccc(Cl)cc2)C(C(=O)OCc2ccc(OC)cc2)=C1C (stereo not drawn)" group=met
compound=COc1ccccc1COC(=O)C1=C(C)N(C[C@H]2CCCO2)C(=O)C[C@@H]1c1ccc(Cl)nc1 group=met
compound="COCCN1C(=O)CC(c2ccc(Cl)cc2)C(C(=O)OCc2ccccc2)=C1C (stereo not drawn)" group=met
compound="CC1=C(C(=O)OCc2ccccc2)C(c2ccc(Cl)cc2)CC(=O)N1CC1CN(C)C1 (stereo not drawn)" group="not met"
compound="COCCN1C(=O)CC(c2ccc(Cl)cc2)C(C(=O)OCc2ccc(-c3ccccc3)cc2)=C1C (stereo not drawn)" group=met
compound="CC1=C(C(=O)OCc2ccc(OCCS(=O)(=O)O)cc2)[C@@H](c2ccc(Cl)nc2)CC(=O)N1C[C@@H]1CCCO1.N (racemic)" group=met
compound="O=C(NCc1ccccc1)C1=CN(CC2CC2)C(=O)CC1c1ccc(Cl)cc1 (stereo not drawn)" group="not met"
compound="COCCOc1ccc(COC(=O)C2=C(C)N(C[C@@H]3CCCO3)C(=O)C[C@H]2c2ccc(Cl)cc2)cc1 (racemic)" group=met
compound="COCCN1C(=O)CC(c2ccc(Cl)cc2)C(C(=O)OCc2ccc3ccccc3c2)=C1C (stereo not drawn)" group=met
compound="COc1ccccc1COC(=O)C1=C(C)N(C[C@H]2CCCO2)C(=O)C[C@H]1c1ccc(Cl)cc1 [Example 167]" group=met
compound="C=CCN1C(=O)CC(c2ccc(Cl)cc2)C(C(=O)OCc2ccccc2)=C1C (stereo not drawn)" group="not met"
compound="COc1ccccc1COC(=O)C1=C(C)N(C[C@H]2CCCO2)C(=O)C[C@H]1c1ccc(Cl)c(Cl)c1 (racemic)" group=met
compound="COc1ccccc1C1CC(=O)NC(C)=C1C(=O)OCc1ccccc1 (stereo not drawn)" group="not met"
compound="COc1ccccc1COC(=O)C1=C(C)N(C[C@H]2CCCO2)C(=O)C[C@H]1c1ccc(Cl)nc1 (racemic)" group=met
compound="CC1=C(C(=O)OCc2ccccc2)C(c2ccccc2)CC(=O)N1 (stereo not drawn)" group="not met"
compound="CC1=C(C(=O)OCc2ccccc2OCCS(=O)(=O)O)[C@@H](c2ccc(Cl)nc2)CC(=O)N1C[C@@H]1CCCO1.N (racemic)" group="not met"
compound="COc1ccccc1COC(=O)C1=C(C)N(CC2OCCO2)C(=O)CC1c1ccc(Cl)cc1 (stereo not drawn)" group=met
compound="CC1=C(C(=O)OCc2ccccn2)[C@H](c2ccc(Cl)cc2)CC(=O)N1C[C@H]1CCCO1 (racemic)" group="not met"
